Molecular target: Murine p38 (Mus musculus)
Sequence (P47811 whole entry): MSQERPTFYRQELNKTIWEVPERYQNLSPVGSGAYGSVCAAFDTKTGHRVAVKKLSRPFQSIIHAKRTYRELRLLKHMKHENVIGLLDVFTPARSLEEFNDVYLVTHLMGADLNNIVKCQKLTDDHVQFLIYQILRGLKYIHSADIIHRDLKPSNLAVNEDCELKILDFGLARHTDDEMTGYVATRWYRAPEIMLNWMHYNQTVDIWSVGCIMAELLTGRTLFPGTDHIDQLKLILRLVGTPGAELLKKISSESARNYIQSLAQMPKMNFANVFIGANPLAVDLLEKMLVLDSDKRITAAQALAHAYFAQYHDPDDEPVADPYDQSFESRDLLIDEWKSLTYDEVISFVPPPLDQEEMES
Test: Murine p38α standard assay against pre-activated p38 (ATF-2 phosphorylation, DELFIA)
Details: murine p38, ATF-2 substrate
Endpoint: IC50 (nM)

Req: Name the reported IC50 value associated with the compound `COc1ccc(C(=O)N2CCC(Cc3ccc(NC(=O)Nc4cc(C(C)(C)C)nn4-c4ccc(C)cc4)cc3)CC2)c(OC)c1`
Resp: 230

Req: Now this one: COc1ccc(C(=O)N2C3CCC2CC(Cc2ccc(NC(=O)Nc4cc(C(C)(C)C)nn4-c4ccc(C)cc4)cc2)C3)c(OC)c1 (centres unmarked)
Resp: 1170

[P] COc1ccc(C(=O)N2CCC(Cc3cccc(NC(=O)Nc4cc(C(C)(C)C)nn4-c4ccc(C)cc4)c3)CC2)c(OC)c1
[Q] COc1ccc(C(=O)N2CCC(Cc3ccccc3NC(=O)Nc3cc(C(C)(C)C)nn3-c3ccc(C)cc3)CC2)c(OC)c1
Req: Could you point out whether the larger IC50 belongs to P or to Q ? Answer = label.
Resp: Q

Where these numbers come from: patent US7541368B2
